Value source: paper PMC6443996

- experimentalTarget: trimeric human nuclease module (BTG2-Caf1/CNOT7-Ccr4/CNOT6L) (Homo sapiens, UniProt Q9UIV1)
- Construct: trimeric complex co-expressed from pQE80L-BTG2 and pACYC-Duet1-Strep-CNOT6L-CNOT7 in E. coli; with CCR4-NOT transcription complex subunit 6-like; Protein BTG2
- Sequence (Q9UIV1 whole entry, other chains not shown): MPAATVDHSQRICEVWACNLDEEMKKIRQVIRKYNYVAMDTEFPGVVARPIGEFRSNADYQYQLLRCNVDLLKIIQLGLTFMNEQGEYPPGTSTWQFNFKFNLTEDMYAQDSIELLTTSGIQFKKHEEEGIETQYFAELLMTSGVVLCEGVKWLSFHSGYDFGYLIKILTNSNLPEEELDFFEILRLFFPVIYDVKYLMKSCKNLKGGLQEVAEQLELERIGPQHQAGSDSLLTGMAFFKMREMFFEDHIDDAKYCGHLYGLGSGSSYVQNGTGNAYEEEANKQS
- Sequence (P78543 whole entry partner, other chains not shown): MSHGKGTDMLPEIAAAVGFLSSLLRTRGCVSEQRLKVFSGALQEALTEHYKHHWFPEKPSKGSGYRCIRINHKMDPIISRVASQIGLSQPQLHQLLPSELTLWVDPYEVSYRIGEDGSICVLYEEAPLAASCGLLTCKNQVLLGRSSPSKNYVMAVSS
- procedureText: chemiluminescence-based AMP detection (AMP-Glo) deadenylase assay
- Format: biochemical
- particulars: read-out: IC50 (μM) vs trimeric Caf1-complex ^c
# key: entry, value: IC50

{"molecule": "CN(C)CCCn1c(=O)n(O)c(=O)c2c1ncn2CCc1ccccc1 [compound 5, 1-hydroxy-xanthine compound 5]", "unitLabel": "µM", "IC50": 1}
{"molecule": "O=c1[nH]c2ncn(Cc3ccccc3)c2c(=O)n1O [compound 1, 1-hydroxy-xanthine compound 1]", "unitLabel": "µM", "IC50": 13.6}
